- Tested on: Pseudomonas aeruginosa ATCC 27853
- Format: cell-based
- conditionInfo: ATCC 27853
Where a SMILES comes first, the peptide text is derived from it. Bridges are numbered along the chain shown (N, C = ends). [ ]: non-standard residue; d: D form. The star is where a group is joined. Benzothiazole(5-carbonyl) = O=C(c1ccc2scnc2c1)*; Dab = NCC[C@H](N)C(=O)O; Abu = CC[C@H](N)C(=O)O; Dap = NC[C@H](N)C(=O)O; X53 = O=C(c1ccncc1Cl)*; X71 = O=C(c1sccc1Cl)*
attributeMeasured: Minimum inhibitory concentration (µg/mL)
State the answer as a number, implicitly in µg/mL.

Req: What Minimum inhibitory concentration value was documented for this molecule, CC[C@@H]1NC(=O)[C@@H](CC(C)C)NC(=O)[C@H](CCN)NC(=O)[C@@H](NC(=O)[C@H](CN)NC(=O)[C@@H](NC(=O)[C@H](CCN)NC(=O)c2ccc3scnc3c2)[C@@H](C)O)CCNC(=O)[C@H]([C@@H](C)O)NC(=O)[C@H](CCN)NC(=O)[C@H](CCN)NC1=O [Compound 53] ({Benzothiazole(5-carbonyl)}-[Dab]T[Dap][Dab][Dab][dL][Abu][Dab][Dab]T; lactam 4-C; N-terminus assumed) ?
Resp: 0.5

Req: I am curious: what Minimum inhibitory concentration value has been reported for CC[C@@H]1NC(=O)[C@@H](CC(C)C)NC(=O)[C@H](CCN)NC(=O)[C@@H](NC(=O)[C@H](CN)NC(=O)[C@@H](NC(=O)[C@H](CCN)NC(=O)c2ccncc2Cl)[C@@H](C)O)CCNC(=O)[C@H]([C@@H](C)O)NC(=O)[C@H](CCN)NC(=O)[C@H](CCN)NC1=O [Compound 34] (X53-[Dab]T[Dap][Dab][Dab][dL][Abu][Dab][Dab]T; lactam 4-C) ?
Resp: 0.25

Req: Fill in: Minimum inhibitory concentration of CC[C@@H]1NC(=O)[C@@H](CC(C)C)NC(=O)[C@H](CCN)NC(=O)[C@@H](NC(=O)[C@H](CN)NC(=O)[C@@H](NC(=O)[C@H](CCN)NC(=O)c2sccc2Cl)[C@@H](C)O)CCNC(=O)[C@H]([C@@H](C)O)NC(=O)[C@H](CCN)NC(=O)[C@H](CCN)NC1=O [Compound 89] (X71-[Dab]T[Dap][Dab][Dab][dL][Abu][Dab][Dab]T; lactam 4-C) is ___
Resp: 0.25
